conditions: in acetonitrile, 308.15 K
PROPERTY MEASURED: solubility (mole fraction)

Could you tell me which solubility (mole fraction) is on file for "CCOC(=O)c1ccc(O)cc1" ?
0.214

###

conditions: in acetonitrile, 313.15 K
PROPERTY MEASURED: solubility (mole fraction)
The response must contain the number and no unit.

Could you tell me which solubility (mole fraction) is on file for "CCOC(=O)c1ccc(O)cc1" ?
0.252

###

settings: in water, 318.15 K
PROPERTY MEASURED: solubility (mole fraction)
The response must contain the number and no unit.

Could you tell me which solubility (mole fraction) is on file for "CCOC(=O)c1ccc(O)cc1" ?
0.000192

###

conditions: in water, 278.15 K
PROPERTY MEASURED: solubility (mole fraction)
The response must contain the number and no unit.

Could you tell me which solubility (mole fraction) is on file for "CCOC(=O)c1ccc(O)cc1" ?
2.62e-05

###

details: in water, 313.15 K
PROPERTY MEASURED: solubility (mole fraction)

Could you tell me which solubility (mole fraction) is on file for "CCOC(=O)c1ccc(O)cc1" ?
0.000169

###

settings: in water, 308.15 K
PROPERTY MEASURED: solubility (mole fraction)
The response must contain the number and no unit.

Could you tell me which solubility (mole fraction) is on file for "CCOC(=O)c1ccc(O)cc1" ?
0.000145

###

conditions: in water, 288.15 K
PROPERTY MEASURED: solubility (mole fraction)

Could you tell me which solubility (mole fraction) is on file for "CCOC(=O)c1ccc(O)cc1" ?
5.25e-05

###

details: in acetonitrile, 318.15 K
PROPERTY MEASURED: solubility (mole fraction)

Could you tell me which solubility (mole fraction) is on file for "CCOC(=O)c1ccc(O)cc1" ?
0.293
